Target: recombinant soluble homotrimeric HA of A/Japan/305/57 (H2N2) (Influenza A virus A/Japan/305/1957(H2N2))
Assay: HA microarray, BCC supernatant
Details: remark: other sources report otherwise
Assay Endpoint: Trimeric HA Binding: RLU

For orientation, consider the following solved cases.
{"Binder": "TCN-550 (5096_F06) (antibody, V domains shown) VH: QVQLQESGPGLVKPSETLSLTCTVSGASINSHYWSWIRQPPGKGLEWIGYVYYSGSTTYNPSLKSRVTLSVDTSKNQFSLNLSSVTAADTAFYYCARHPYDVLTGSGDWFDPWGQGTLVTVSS VL: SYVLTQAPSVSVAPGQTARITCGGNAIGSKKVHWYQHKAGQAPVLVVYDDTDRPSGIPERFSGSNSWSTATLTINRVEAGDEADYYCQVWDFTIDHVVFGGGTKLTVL", "Value Reported": "201 RLU"}
{"Binder": "TCN-532 (5262_H18) (antibody, V domains shown) VH: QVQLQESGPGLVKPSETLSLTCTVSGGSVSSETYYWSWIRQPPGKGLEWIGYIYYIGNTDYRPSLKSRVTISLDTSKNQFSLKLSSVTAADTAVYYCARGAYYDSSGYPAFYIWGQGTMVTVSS VL: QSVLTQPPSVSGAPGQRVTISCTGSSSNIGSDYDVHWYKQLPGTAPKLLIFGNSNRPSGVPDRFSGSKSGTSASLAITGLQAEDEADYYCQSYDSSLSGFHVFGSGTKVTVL", "Value Reported": "176 RLU"}

Now consider a different binder.
Task item: Reported Trimeric HA Binding: RLU for TCN-546 (5089_L08) (antibody, V domains shown) VH: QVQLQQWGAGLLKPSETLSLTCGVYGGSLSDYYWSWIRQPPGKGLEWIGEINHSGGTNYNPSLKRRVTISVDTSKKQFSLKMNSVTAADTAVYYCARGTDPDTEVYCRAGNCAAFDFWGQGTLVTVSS VL: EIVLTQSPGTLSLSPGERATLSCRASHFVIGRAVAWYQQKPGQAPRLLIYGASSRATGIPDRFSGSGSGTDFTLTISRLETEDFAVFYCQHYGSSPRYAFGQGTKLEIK : what is it?
Reply: 520 RLU
